Reported slope values for the following molecules.
experimental.target: Alpha-2C adrenergic receptor (Homo sapiens)
procedure.details: compounds altering alpha2C-coupled GIRK flux – cell-based, HEK293 alpha2C/GIRK1/2, thallium flux, primary screen (AID 624);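 also: slope of fluorescence ratio to pre-addition baseline per second over 15 to 24 s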
condition.parameters: thallium flux BTC fluorescence, at 10 µM, actives lie on both sides
Response field accepts a number only; no unit should be typed.

Examples with answers:
COc1ccc(C)cc1S(=O)(=O)N(C)CC(=O)Nc1ccc2c(c1)OCCO2: 0.00534
COc1ccc(S(=O)(=O)NCC(=O)N(CC(=O)NCC2CCCO2)c2ccccc2C)cc1 (stereo not given): 0.00632
CCN(CCCNC(=O)C1CCCN(S(=O)(=O)c2cnc[nH]2)C1)c1ccccc1 (stereo not given): 0.00623

If you can, please state the reported slope value of CC(C)(C)n1nnnc1CN(Cc1ccco1)Cc1cc2cc3c(cc2[nH]c1=O)OCO3 . 0.00513

Quick check: slope of Cn1c(=N)c(S(=O)(=O)c2ccccc2)cc2c(=O)n3ccccc3nc21 ? 0.00488

Every entry's value here was drawn from PubChem BioAssay.
